system: HLA-A*29:02
assay-notes: IEDB peptide-MHC binding, purified MHC/competitive/fluorescence; filed as Kd, often an IC50 or EC50 that approximates it; bounds were set here for any values at or beyond the usual limits of such assays
assay-conditions: source organism: Mycobacterium tuberculosis C
experimental-readout: Kd

INSERT INTO results (sequence_text, system, experimental_readout, recorded_value) VALUES
  ('SLVAIHLAC', 'HLA-A*29:02', 'Kd', '≥ 20 µM');

* * *

system: HLA-B*45:01
assay-notes: IEDB peptide-MHC binding, purified MHC/competitive/radioactivity; filed as Kd, often an IC50 or EC50 that approximates it; bounds were set here for any values at or beyond the usual limits of such assays
assay-conditions: source organism: Mammarenavirus juninense
pKd: −log10 of the molar value.
experimental-readout: pKd

INSERT INTO assay_data (sequence_text, recorded_value) VALUES
  ('LDLVLLNLL', 4.90);

These measurements were taken from the Immune Epitope Database (IEDB).
